# SYSTEM: Coagulation factor VII/tissue factor (Homo sapiens, UniProt P08709)
# Sequence (P08709 61-212 limits assumed): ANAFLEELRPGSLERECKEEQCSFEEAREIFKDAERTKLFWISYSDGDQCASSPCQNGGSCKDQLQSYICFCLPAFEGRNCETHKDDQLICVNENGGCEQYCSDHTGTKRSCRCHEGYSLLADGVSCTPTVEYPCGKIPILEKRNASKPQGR
# Sequence (P08709 213-466 limits assumed): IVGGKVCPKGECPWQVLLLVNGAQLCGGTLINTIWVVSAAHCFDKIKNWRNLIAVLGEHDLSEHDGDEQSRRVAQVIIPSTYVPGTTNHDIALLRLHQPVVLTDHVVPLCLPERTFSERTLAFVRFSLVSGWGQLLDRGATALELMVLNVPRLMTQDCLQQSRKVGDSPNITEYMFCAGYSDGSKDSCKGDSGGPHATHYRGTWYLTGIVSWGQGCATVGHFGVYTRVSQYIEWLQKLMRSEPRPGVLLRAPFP
# Sequence (P13726 33-295 partner limits assumed): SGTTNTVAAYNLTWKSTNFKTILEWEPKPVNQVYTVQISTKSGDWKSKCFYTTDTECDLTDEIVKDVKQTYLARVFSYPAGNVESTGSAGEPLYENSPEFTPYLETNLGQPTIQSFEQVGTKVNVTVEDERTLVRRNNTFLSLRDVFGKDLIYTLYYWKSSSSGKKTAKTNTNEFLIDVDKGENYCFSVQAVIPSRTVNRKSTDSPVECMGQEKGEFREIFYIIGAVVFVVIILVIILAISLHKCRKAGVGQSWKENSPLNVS
PARAMETER: Ki (mM)

[ask] What Ki value was documented for this molecule, "COc1cc(Br)ccc1O" ?
[reply] 13

[ask] What Ki value was documented for this molecule, O=C(O)c1cc2cc(Cl)ccc2[nH]1 [5-CHLOROINDOLE-2-CARBOXYLIC ACID] ?
[reply] 3.5

[ask] What Ki value was documented for this molecule, "COc1cc(Cl)ccc1O" ?
[reply] 16

a = OCc1ccc(Cl)cc1Cl [DICHLOROBENZYL ALCOHOL]
b = COC(=O)Nc1ccc(S(=O)(=O)C(C)C)c([C@H]2CCCN2C(=O)[C@H](Nc2ccc3c(c2)C(=O)NCC3)c2cc(OC)c(OC)cc2F)c1
[ask] Could you point out whether the larger Ki belongs to a or to b ? // output: label of the selected item
[reply] a
(a: 13 mM, b: 0.00013 mM)

P = COC(=O)c1cccc2[nH]ccc12
Q = Clc1ccc2[nH]ccc2c1
[ask] Could you determine which record has the numerically smaller Ki? Candidates: P and Q // output: label of the selected item
[reply] Q
(Q: 4.3 mM, P: 13 mM)

1 = N=C(N)c1ccccc1 [BENZAMIDINE]
2 = NC(=O)c1cccnc1 [NIACINAMIDE]
[ask] Could you determine which record has the numerically smaller Ki? Candidates: 1 and 2 // output: label of the selected item
[reply] 1
(1: 0.24 mM, 2: 8 mM)

---

# EXPERIMENT_NOTES: Permeability of the compound after 4 hrs by PAMPA
# Type: ADME
# EXPERIMENTAL_SETUP: read-out: permeability
PARAMETER: Papp at 4 h (×10⁻⁶ cm/s)
Just the number in ×10⁻⁶ cm/s, nothing appended.

[ask] What Papp at 4 h value was documented for this molecule, "COC(=O)Nc1ccc(S(=O)(=O)C(C)C)c([C@H]2CCCN2C(=O)[C@H](Nc2ccc3c(c2)C(=O)NCC3)c2cc(OC)c(OC)cc2F)c1" ?
[reply] 1.8
